target-of-assay: αIIbβ3 headpiece (Homo sapiens, UniProt P05106+P08514)
assay-protocol: Size-exclusion chromatography
Format: biochemical
test-parameters: Mg2+ and Mn2+ buffers, 10 μM drug
readout-label: effect on αIIbβ3 headpiece conformation in gel filtration

Item O=C(O)CN1CCN(CC2CC(C3CCNCC3)=NO2)CC1 (stereo not shown) has what recorded effect on αIIbβ3 headpiece conformation in gel filtration?
closure stabilizing

Item N=C(N)c1ccc(C2=NOC(CN3CCN(CC(=O)O)CC3)C2)cc1 (stereo not shown) has what recorded effect on αIIbβ3 headpiece conformation in gel filtration?
closure stabilizing

====

target-of-assay: αIIbβ3 on washed human platelets (Homo sapiens, UniProt P05106+P08514)
Sequence (P08514 32-887 limits assumed): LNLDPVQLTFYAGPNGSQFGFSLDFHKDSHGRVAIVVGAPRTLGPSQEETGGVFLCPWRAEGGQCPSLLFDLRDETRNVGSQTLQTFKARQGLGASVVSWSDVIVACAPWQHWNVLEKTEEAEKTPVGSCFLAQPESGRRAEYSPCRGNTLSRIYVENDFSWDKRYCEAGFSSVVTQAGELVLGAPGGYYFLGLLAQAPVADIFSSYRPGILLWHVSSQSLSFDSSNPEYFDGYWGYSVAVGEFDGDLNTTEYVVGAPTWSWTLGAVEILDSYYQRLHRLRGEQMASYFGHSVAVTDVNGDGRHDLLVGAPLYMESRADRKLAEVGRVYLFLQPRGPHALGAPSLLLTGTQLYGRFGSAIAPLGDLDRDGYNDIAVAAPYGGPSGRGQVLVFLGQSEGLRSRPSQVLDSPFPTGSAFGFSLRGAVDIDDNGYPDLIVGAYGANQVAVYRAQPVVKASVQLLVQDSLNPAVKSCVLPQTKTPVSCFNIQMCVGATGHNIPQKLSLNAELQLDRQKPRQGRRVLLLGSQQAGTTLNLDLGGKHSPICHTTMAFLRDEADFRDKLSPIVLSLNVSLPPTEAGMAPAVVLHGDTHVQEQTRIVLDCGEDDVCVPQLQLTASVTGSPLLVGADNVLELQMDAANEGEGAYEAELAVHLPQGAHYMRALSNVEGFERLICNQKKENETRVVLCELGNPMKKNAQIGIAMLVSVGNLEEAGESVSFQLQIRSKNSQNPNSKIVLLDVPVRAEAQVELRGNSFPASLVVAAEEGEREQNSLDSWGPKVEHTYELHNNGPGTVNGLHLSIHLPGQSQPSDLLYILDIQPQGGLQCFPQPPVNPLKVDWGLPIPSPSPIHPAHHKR
Sequence (P08514 891-1039 partner limits assumed): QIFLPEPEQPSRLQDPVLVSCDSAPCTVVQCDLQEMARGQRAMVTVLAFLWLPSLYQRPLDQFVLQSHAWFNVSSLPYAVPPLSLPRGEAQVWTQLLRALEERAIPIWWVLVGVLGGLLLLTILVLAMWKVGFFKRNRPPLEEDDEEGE
Sequence (P05106 27-788): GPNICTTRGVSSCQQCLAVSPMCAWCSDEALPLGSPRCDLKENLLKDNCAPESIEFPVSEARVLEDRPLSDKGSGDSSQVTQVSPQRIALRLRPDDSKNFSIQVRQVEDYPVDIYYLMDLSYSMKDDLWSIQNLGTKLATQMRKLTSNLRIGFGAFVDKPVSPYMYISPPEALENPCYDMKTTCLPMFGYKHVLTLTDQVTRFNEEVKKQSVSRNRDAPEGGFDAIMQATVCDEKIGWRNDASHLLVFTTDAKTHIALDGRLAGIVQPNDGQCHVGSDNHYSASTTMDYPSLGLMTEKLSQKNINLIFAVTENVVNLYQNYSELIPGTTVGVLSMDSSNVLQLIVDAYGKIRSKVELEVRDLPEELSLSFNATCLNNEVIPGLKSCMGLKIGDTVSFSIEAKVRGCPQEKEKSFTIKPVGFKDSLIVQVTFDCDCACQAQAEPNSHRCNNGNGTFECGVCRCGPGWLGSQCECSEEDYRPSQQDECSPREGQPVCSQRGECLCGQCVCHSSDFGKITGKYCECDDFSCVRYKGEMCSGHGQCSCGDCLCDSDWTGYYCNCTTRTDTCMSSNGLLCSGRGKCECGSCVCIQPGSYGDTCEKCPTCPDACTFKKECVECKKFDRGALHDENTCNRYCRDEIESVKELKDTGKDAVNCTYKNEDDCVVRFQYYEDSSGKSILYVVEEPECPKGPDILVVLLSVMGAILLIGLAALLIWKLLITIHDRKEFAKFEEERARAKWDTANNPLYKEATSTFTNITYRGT
assay-protocol: Platelets LIBS exposure assay
Type: cell-based
test-parameters: absence of thrombin
readout-label: LIBS epitope exposure (integrin extension) on washed platelets

Item CN1Cc2cc(C(=O)N3CCC(C4CCNCC4)CC3)ccc2N[C@@H](CC(=O)O)C1=O has what recorded LIBS epitope exposure (integrin extension) on washed platelets?
Stronger extension

Item CCCCS(=O)(=O)N[C@@H](Cc1ccc(OCCCCC2CCNCC2)cc1)C(=O)O has what recorded LIBS epitope exposure (integrin extension) on washed platelets?
Stronger extension
